molecular target: EPHA5 (Homo sapiens, UniProt P54756); construct: purchased Eurofins DiscoverX KINOMEscan (scanTK); assay: KINOMEscan ScanTK; type: binding; conditions: read-out: %Control @1000nM
Sequence (P54756 25-1037): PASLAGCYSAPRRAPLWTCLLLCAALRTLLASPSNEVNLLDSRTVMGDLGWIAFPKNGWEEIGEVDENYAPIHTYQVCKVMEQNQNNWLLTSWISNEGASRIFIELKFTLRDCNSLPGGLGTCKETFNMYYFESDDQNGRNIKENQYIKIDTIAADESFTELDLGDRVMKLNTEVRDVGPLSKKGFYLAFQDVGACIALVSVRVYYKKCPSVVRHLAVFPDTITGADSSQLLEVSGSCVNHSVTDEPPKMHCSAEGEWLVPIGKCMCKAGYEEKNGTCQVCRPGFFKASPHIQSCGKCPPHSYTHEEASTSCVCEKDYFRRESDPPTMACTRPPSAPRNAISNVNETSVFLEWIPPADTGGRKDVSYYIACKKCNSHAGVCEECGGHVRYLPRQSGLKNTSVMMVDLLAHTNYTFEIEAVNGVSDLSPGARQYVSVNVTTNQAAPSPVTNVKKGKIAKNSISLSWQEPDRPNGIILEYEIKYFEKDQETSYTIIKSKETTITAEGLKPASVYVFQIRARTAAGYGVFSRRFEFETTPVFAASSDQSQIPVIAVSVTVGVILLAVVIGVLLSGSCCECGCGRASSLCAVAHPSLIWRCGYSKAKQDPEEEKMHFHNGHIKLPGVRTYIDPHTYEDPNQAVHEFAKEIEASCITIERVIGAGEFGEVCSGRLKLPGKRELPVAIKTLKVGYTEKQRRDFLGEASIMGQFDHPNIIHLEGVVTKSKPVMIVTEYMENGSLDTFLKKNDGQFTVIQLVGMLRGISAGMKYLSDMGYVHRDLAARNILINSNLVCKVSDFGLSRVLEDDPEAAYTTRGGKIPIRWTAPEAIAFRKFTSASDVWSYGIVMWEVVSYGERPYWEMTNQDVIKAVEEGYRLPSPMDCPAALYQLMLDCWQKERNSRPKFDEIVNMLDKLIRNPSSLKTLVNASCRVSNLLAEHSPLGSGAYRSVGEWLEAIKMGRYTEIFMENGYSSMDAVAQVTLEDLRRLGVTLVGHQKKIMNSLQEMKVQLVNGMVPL
attributeMeasured: remaining binding at 1 µM

COC(=O)c1cnc(S(C)(=O)=O)nc1N1CCCC(n2nc(-c3ccc(Oc4ccccc4)cc3)c3c(N)ncnc32)C1 (centres unmarked) [Compound 8b]
100%
CCOC(=O)c1cnc(S(C)(=O)=O)nc1N1CCC[C@@H](n2nc(-c3ccc(Oc4ccccc4)cc3)c3c(N)ncnc32)C1 [Compound 8c]
100%

Sure, the documented remaining binding at 1 µM for C=CC(=O)N1CCC[C@@H](n2nc(-c3ccc(Oc4ccccc4)cc3)c3c(N)ncnc32)C1 [Compound 1g, Ibrutinib, reference compound] is 96%

Sure, the documented remaining binding at 1 µM for Cc1cnc(S(C)(=O)=O)nc1N1CCCC(n2nc(-c3ccc(Oc4ccccc4)cc3)c3c(N)ncnc32)C1 (centres unmarked) [Compound 8a] is 95%

Sure, the documented remaining binding at 1 µM for CNC(=O)c1cnc(S(C)(=O)=O)nc1N1CCCC(n2nc(-c3ccc(Oc4ccccc4)cc3)c3c(N)ncnc32)C1 (centres unmarked) [Compound 8d] is 100%
